- assay.summary: log P by HPLC (EEC Directive 79/831 Annex V.A8)
- Format: physicochemical
- condition.description: gradient method, acetonitrile/0.1% of aqueous phosphoric acid
metric.name: chromatographic logP

> print(dat)
                              smiles.entry           metric.name  result.number
1            O=C(OCCOC(CF)CF)c1snc(Cl)c1Cl  chromatographic logP           3.11
2                   CCCSC(=O)c1snc(Cl)c1Cl  chromatographic logP           4.66
3       O=C(OCCOc1ccc(Cl)cc1)c1snc(Cl)c1Cl  chromatographic logP           4.58
4  COC(=O)c1ccc(OCCOC(=O)c2snc(Cl)c2Cl)cc1  chromatographic logP           3.91

----------
- assay.summary: log P by HPLC (EEC Directive 79/831 Annex V.A8)
- Format: physicochemical
- condition.description: gradient method, acetonitrile/0.1% of aqueous phosphoric acid
Note that class boundaries on chromatographic logP are bottom bin = under 3, middle bin = from 3 up to 4, top bin = 4 and over

> print(dat)
                                    compound  assigned.category
 1        O=C(OCCn1nnc2ccccc21)c1snc(Cl)c1Cl         bottom bin
 2                      CSC(=O)c1snc(Cl)c1Cl         middle bin
 3  Cc1ccc(C(C)OC(=O)c2snc(Cl)c2Cl)cc1 (centres unmarked)            top bin
 4  O=C(OCCOc1cccc(C(F)(F)F)c1)c1snc(Cl)c1Cl            top bin
 5           O=C(OCCOCCN1CCCC1)c1snc(Cl)c1Cl         bottom bin
 6              CCN(CC)CCOC(=O)c1snc(Cl)c1Cl         bottom bin
 7           O=C(OCCOCC(F)(F)F)c1snc(Cl)c1Cl         middle bin
 8           O=C(OCCOCc1ccccc1)c1snc(Cl)c1Cl            top bin
 9                 CC(C)CSC(=O)c1snc(Cl)c1Cl            top bin
10  O=C(OCC(O)CO)c1snc(Cl)c1Cl (centres unmarked)         bottom bin
11     CCN(CCOCCOC(=O)c1snc(Cl)c1Cl)c1ccccc1         bottom bin
